Test system: MOLT-4 leukemia
Assay: NCI tumour cell line growth inhibition, 48 h

compound	TGI
Cc1cn(C(Cc2ccccc2)OCCO)c(=O)[nH]c1=O (configuration not stated)	> 100 µM
CCOc1ccc(-c2nc(-c3oc4ccccc4c(=O)c3OC(C)=O)cs2)cc1	> 10 µM
CN(C)c1ccc(C2SCC(=O)N2NS(=O)(=O)c2cccc(C(=O)O)c2)cc1 (configuration not stated)	> 100 µM
O=C(O)CC[N+]1=CCC(c2ccccc2)(c2ccccc2)O1	> 100 µM
CCOC(=O)c1c[nH]c2oc(/C=N/N3CC(CN4CCOCC4)OC3=O)cc2c1=O (configuration not stated)	> 100 µM
Cc1cc(C2CC(O)C(CO)O2)cc2c(=O)[nH]c(N)nc12 (configuration not stated)	> 100 µM
O=c1[nH]/c(=C/c2ccc(OCc3ccccc3)cn2)c(=O)[nH]/c1=C/c1ccc(O)cc1	1.65 µM
C=CCNC(=O)N(CCC)CCCCC(NC(C)=O)C(=O)NCc1ccccc1 (configuration not stated)	> 100 µM
COc1ccc(Nc2c3ccccc3nc3occ(Cl)c23)cc1	> 44.5 µM
Cn1cc(C2=C(c3cn(CCCCCN)c4ccccc34)C(=O)NC2=O)c2ccccc21	> 22.9 µM
C=CCCC(=O)CC(O)(C(F)(F)F)C(F)(F)F	> 100 µM
O=C(Nc1cc(Cl)ccc1Cl)C(=O)C(c1cnc2ccccc2n1)[N+](=O)[O-] (configuration not stated)	> 100 µM
COc1cc(C2=C(c3cn(C)c4ccccc34)COC2=O)cc(OC)c1OC	> 28.2 µM
CC(C)(C=O)CC(C#N)/C(=N\NC(N)=O)C(=O)Nc1ccccc1C(N)=O (configuration not stated)	> 100 µM
CCC1(C)N=C(c2cnccn2)NN1c1ccc(Cl)cc1 (configuration not stated)	> 100 µM
COCCOc1cnc2ccn([C@H](C)c3nnc4c(F)cc(-c5cnn(C)c5)cn34)c(=O)c2c1	> 100 µM
N#CC(=NCCO)C1=C(O)c2ccccc2C1=O	> 100 µM
Nc1ccc2[nH]c3c(-c4ccccc4)nccc3c2c1	22.8 µM
COc1ccc2c(c1)[C@@]13CCCC[C@H]1[C@@H](C2)N(C)CC3=O	> 100 µM
COC(=O)C1=C2SCc3cccc(c3)CSC3=C(C(=O)OC)SC(=C(S2)S1)S3	> 100 µM
CN(O)C(=O)c1cccc(Cl)c1	> 100 µM
O=c1c2ncn(COCCCl)c2n(-c2ccccc2)c(=S)n1-c1ccccc1	> 100 µM

----------
# TGI per entry
Test system: SF-268 CNS
Experiment: NCI tumour cell line growth inhibition, 48 h
experimental endpoint: TGI

compound	experimental endpoint	recorded measurement
CC1Cn2c(nc3ccccc32)NC1=O (stereo unspecified)	TGI	> 100 µM
O=C1c2ccccc2C(=O)N1Cc1ccccc1-c1c2nc(c(-c3ccccc3CN3C(=O)c4ccccc4C3=O)c3ccc([nH]3)c(-c3ccccc3CN3C(=O)c4ccccc4C3=O)c3nc(c(-c4ccccc4CN4C(=O)c5ccccc5C4=O)c4ccc1[nH]4)C=C3)C=C2	TGI	> 100 µM
CN(O)C(=O)c1cccc(Cl)c1	TGI	> 100 µM
COc1cc(Nc2c3ccccc3nc3ccccc23)ccc1NS(C)(=O)=O	TGI	25.5 µM
COc1cc2cccc(N=Cc3cccc(OC)c3OC(C)C)c2cc1OC	TGI	91.4 µM
CCn1nc2c3c(ncn3C(C)(C)O2)c1=O	TGI	> 100 µM
Cc1ccc2c(=O)cc(-c3cccs3)[nH]c2n1	TGI	> 100 µM
Nc1ccc2[nH]c3c(-c4ccccc4)nccc3c2c1	TGI	> 100 µM
NCCN=C(Nc1ccccc1)Nc1ccccc1	TGI	> 100 µM
Cc1cn(C2CC(n3cc(Cn4cc(Br)c(=O)[nH]c4=O)nn3)C(CO)O2)c(=O)[nH]c1=O (stereo unspecified)	TGI	> 100 µM
CCOC(=O)c1ccc(N2C(=S)N(C(=O)c3ccccc3)C(=Nc3ccccc3)C2=Nc2ccccc2)cc1	TGI	> 100 µM
CC(C)(C=O)CC(C#N)/C(=N\NC(N)=O)C(=O)Nc1ccccc1C(N)=O (stereo unspecified)	TGI	> 100 µM
O=c1oc2ccccc2c(Nc2ccc3c(c2)Oc2ccccc2O3)c1[N+](=O)[O-]	TGI	48.4 µM
CC1(CF)SCc2nc3ccccc3n21 (stereo unspecified)	TGI	> 100 µM
CCOc1ccc(-c2nc(-c3oc4ccccc4c(=O)c3OC(C)=O)cs2)cc1	TGI	> 10 µM
CCOC(=O)/C1=C(\C)N(c2ccc(C)cc2)C(=O)c2ccccc2C(=O)c2c(OC(C)=O)ccc(OC(C)=O)c21	TGI	> 100 µM
CC12CCCCC1(C)C2Sc1ccccc1 (stereo unspecified)	TGI	> 100 µM
Cc1cc(C2CC(O)C(CO)O2)cc2c(=O)[nH]c(N)nc12 (stereo unspecified)	TGI	> 100 µM
CC1=NN(c2ccc(S(=O)(=O)O)cc2)C2(C1)SCC(=O)N2c1nc2ccccc2s1 (stereo unspecified)	TGI	> 100 µM
N#CC(=NCCO)C1=C(O)c2ccccc2C1=O	TGI	> 100 µM
[Au+].[Au+].[Au+].[c-]1nccn1Cc1ccccc1.[c-]1nccn1Cc1ccccc1.[c-]1nccn1Cc1ccccc1	TGI	15.3 µM
O=C1c2ccc3c4ccccc4n(Cc4ccccc4)c3c2C(=O)N1c1ccccc1	TGI	40.8 µM
CCCSc1ccc2[nH]c(/N=C/c3ccco3)cc2c1	TGI	> 100 µM
CC1CCC(=O)C(C(=O)CC2CC(=O)NC(=O)C2)C1 (stereo unspecified)	TGI	> 100 µM
COc1ccc(/C=N/N=C(\N)NO)c(O)c1	TGI	> 10 µM
COC(=O)C1=C(C(=O)OC)SC2(S1)C1=C(CCCC1)SC(C(=O)OC)=C2C(=O)OC	TGI	22.3 µM
NC(CS/C(Cl)=C/Cl)C(=O)O (stereo unspecified)	TGI	> 100 µM
COc1cc(C2=C(c3cn(C)c4ccccc34)COC2=O)cc(OC)c1OC	TGI	7.41 µM
O=[N+]([O-])c1ccc2c(c1)C(c1ccccc1Cl)=Nc1cn[nH]c1N2	TGI	> 25 µM
COc1cc2ncn(-c3cc(OCCc4ccccc4)c(C(N)=O)s3)c2cc1OC	TGI	> 25 µM
CC(=O)O[C@H](C[C@H](C(C)C)N(C)C(=O)[C@@H](NC(=O)[C@H]1CCCCN1C)C(C)C)c1nc(C(=O)N[C@@H](Cc2ccccc2)C[C@H](C)C(=O)O)c(CCOCc2ccccc2)s1	TGI	> 10 µM
NC(=O)NNC(=O)c1nc[nH]c1[N+](=O)[O-]	TGI	> 100 µM
C[n+]1cc(C(O)c2ccc3c(c2)OCO3)c2ccccc2c1 (stereo unspecified)	TGI	> 100 µM
COc1cccc(/C(COc2ccc3c(c2)oc(=O)c2cc(OC)ccc23)=N/O)c1	TGI	> 100 µM
C=C1C(=O)O[C@H]2/C=C(/C)C3=CC(=O)[C@@](C)(C[C@@H](OC(=O)/C(C)=C\C)C12)O3 (stereo partly specified)	TGI	> 46.5 µM
COc1ccc(-c2c[nH]c(=S)n2-c2ccc(OC)cc2)cc1	TGI	> 50 µM
COc1ccc(C2c3cc(OC)c(OC)cc3C(Cc3ccc([N+](=O)[O-])cc3)C2c2ccc([N+](=O)[O-])cc2)cc1OC (stereo unspecified)	TGI	> 100 µM
O=C(NC(Cc1ccc(I)cc1)C(=O)O)c1ccc(Br)cc1 (stereo unspecified)	TGI	> 100 µM
C=C1C(=O)O[C@H]2[C@H]1CC/C(COC(=O)c1ccc(Cl)nc1)=C\CC[C@@]1(C)O[C@@H]21	TGI	9.49 µM
COC(=O)/C(C#N)=C1\CCC(O)N1 (stereo unspecified)	TGI	> 100 µM
CCC1(C)N=C(c2cnccn2)NN1c1ccc(Cl)cc1 (stereo unspecified)	TGI	> 100 µM
